Entry source: ChEMBL document CHEMBL4049447

Test: Apparent permeability across apical to basolateral side in human Caco2 cells assessed as drug recovery at 10 uM measured up to 2 hrs by ESI-LC/MS/MS analysis
Assay type: ADME, cell-based
Conditions: Caco-2, read-out: Drug recovery
Measured Attribute: recovery at 2 h, 10 µM (%)
Provide only the numeric value, understood in %.

Query: Requested read-out: recovery at 2 h, 10 µM. Entry: Nc1ccc2ccc(CCNCCc3cccc(Cl)c3)cc2n1
Response: 63
